target: T1, human chemokine (C-C motif) receptor 8 (CCR8) (human, UniProt P51685 1-355); test: flow cytometry blocking, human PBMC, CD3+ gate; competitor PE-AB11
T1 construct: also called hCCR8
T1 sequence (P51685 whole entry): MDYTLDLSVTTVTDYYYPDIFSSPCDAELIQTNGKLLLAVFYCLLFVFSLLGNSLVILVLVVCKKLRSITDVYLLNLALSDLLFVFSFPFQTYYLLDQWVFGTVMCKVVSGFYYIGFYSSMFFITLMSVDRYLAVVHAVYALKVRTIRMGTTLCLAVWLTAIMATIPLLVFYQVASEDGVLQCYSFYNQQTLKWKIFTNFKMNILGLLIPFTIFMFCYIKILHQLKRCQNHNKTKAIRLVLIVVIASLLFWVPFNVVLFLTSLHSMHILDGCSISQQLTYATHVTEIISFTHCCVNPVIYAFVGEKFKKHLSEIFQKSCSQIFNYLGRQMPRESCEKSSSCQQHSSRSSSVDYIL
experimentalReadout: % Blocking (%)
// return numeric value only (unit: %, not printed)

For anti-CCR8 monoclonal antibody AB13 (antibody, V domains shown, Hybridoma monoclonal; also called antibody 13; clone 13) VH: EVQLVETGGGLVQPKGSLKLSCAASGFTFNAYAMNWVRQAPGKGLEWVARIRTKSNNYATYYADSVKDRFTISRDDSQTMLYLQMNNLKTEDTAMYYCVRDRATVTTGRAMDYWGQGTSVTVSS VL: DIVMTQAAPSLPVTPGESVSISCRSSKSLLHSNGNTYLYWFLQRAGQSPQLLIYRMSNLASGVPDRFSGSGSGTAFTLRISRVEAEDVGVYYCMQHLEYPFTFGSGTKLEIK , what is its reported % Blocking?
0.85

From: patent US20240360228A1
